I'd be grateful if you could share measured Binding Signal with 300 sec Association (nm) for these entries.
Target: recombinant human GREM1 (hGREM1-His; C-terminal 10His tagged, R&D, #5190-GR) (human) (UniProt O60565)
Sequence (O60565 other isoform, or with tags, fused parts or gaps limits assumed, form in doubt): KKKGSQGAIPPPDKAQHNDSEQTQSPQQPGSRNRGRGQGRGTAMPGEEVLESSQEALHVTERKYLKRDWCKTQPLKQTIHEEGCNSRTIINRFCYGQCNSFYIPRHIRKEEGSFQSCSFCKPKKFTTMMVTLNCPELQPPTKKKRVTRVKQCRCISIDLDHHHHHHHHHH
Assay: BLI Octet, captured mAb, 100 nM GREM1 + 5 uM heparin
Write the answer as a number in nm, unit excluded.

Challenge: Quick one: give measured Binding Signal with 300 sec Association (nm) for H4H2780N (antibody, human IgG4, V domains shown) VH: EVQLVESGGGLVKPGGSLRLSCAASGFTFSTYSMNWVRQAPGKGLEWVSSISSGSSYIYYTDSVKGRFTISRDNAKNSLYLQMNSLRAEDTAVYYCARFGSYYYFGFDVWGQGTTVTVSS VL: DIQMTQSPSSLSASVGDRVTITCRASQGISNYLAWYQQKPGKVPKLLIFSASTLQSGVPSRFSGSGSGPDFTLTVSSLQPEDVATYYCQKYNSAPFAFGPGTKVDIK
Response given: 0.58

Challenge: Quick one: give measured Binding Signal with 300 sec Association (nm) for H4H6269P (antibody, human IgG4, V domains shown) VH: QVQLQESGPGLVKPSQTLSLTCTVSGGSISSGGYYWTWIRQHPGKGLEWIGYIYYSGSTYYNPSLKSRVTMSVDTSKNQFSLKLSSVTAADTAVYYCARLLDFDYWGQGTLVTVSS VL: AIQMTQSPSSLSASVGDRVTITCRASQGIRNDLGWYQQKPGKAPKLLIYAASSLQSGVPSRFSGSGSGRDFTLTISSLQPEDFASYYCLQDHNYPLTFGGGTKVEIK
Response given: 0.52

Challenge: Quick one: give measured Binding Signal with 300 sec Association (nm) for H4H6250P (antibody, human IgG4, V domains shown) VH: QVQLVESGGGVVQPGRSLRLSCAASGFTFSNYGMHWVRQAPGKGLEWVAVIWYDGSNKYYADSVKGRFTISRDNSRKTLYLQMNSLRAEDTAIYYCTRDDYGDYDYPFDYWGQGTLVTVSS VL: DIQMTQSPSSLSASVGDRVTITCRASQGIRNDLGWYQQKPGKAPKRLIYAASSLQSGVPSRFSGTGSGTEFTLTISSLQPEDFATYYCLQHNSYPPFTFGPGTKVDIK
Response given: 0.32
